These entries and their values trace back to paper PMC11960969.

# TESTED SYSTEM: T1, recombinant TrkB protein (full-length human TrkB, His) (human, UniProt Q16620 32-822)
# T1 construct: TrkB, human, full-length cDNA in the pcDNA6-His vector; also called purified human TrkB protein; human TrkB protein; source: HEK293T, purified (His-tag Protein Purification Kit)
# T1 sequence (Q16620 32-822): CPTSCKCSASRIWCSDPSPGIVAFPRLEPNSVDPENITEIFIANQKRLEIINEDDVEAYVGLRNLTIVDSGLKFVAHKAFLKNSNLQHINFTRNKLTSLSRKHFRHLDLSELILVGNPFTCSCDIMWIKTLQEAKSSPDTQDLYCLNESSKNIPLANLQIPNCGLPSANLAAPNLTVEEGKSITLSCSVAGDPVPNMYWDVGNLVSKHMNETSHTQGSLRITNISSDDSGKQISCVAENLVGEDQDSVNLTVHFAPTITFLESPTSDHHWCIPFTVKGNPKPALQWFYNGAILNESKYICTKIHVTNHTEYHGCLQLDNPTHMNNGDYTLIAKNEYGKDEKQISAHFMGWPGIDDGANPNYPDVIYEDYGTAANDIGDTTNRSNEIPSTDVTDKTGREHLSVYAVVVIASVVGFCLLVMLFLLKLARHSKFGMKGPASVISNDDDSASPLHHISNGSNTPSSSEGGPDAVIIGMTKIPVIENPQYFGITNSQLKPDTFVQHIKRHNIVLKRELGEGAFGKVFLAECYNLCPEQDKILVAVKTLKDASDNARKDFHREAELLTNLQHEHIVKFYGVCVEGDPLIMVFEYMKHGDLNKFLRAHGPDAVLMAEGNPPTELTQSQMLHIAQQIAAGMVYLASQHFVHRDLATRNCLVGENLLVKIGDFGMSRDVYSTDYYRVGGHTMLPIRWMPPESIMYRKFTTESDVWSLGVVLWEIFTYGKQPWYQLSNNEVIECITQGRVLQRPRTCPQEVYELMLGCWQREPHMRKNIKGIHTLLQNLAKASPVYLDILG
# PROCEDURE TEXT: SPR; TrkB immobilised on a Biacore CM5 chip by amine coupling; recombinant MDGA2 protein or MDGA2-P2 peptide flowed over at a series of concentrations; Biacore T100 Evaluation software
# CONDITION CONTEXT: both partners purified
MEASURE: Kd
Numeric answer plus unit only.

In plain terms, KARLLSPVFSIAPKNPYGPTNT (MDGA2, human, residues 812-833 (P2); The methods tell the synthesis only of the biotin-labeled peptide; also called MDGA2-derived peptide; source: synthetic peptide) [MDGA2-P2 peptide (aa 812-833), label not stated] has a documented Kd of 9.2 nM
